- tested_on: recombinant cynomolgus Aggrecan G1-IGD-G2 (cynomolgus)
- measurement_protocol: periplasmic extract ELISA
measurement_type: OD 450 nm (OD 450 nm)
Numbers only; they are read as OD 450 nm.

Q: Give its OD 450 nm value. Item: C0101PMP601E08 (VHH, not shown: large carriers) VHH: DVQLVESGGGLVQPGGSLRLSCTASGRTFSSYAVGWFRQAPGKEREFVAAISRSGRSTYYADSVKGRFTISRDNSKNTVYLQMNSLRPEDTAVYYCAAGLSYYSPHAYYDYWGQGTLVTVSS
Result: 1.32

Q: Give its OD 450 nm value. Item: C0101PMP604B05 (VHH, not shown: large carriers) VHH: DVQLVESGGGLVQPGGSLRLSCVASGRTFSIYTMAWFRQAPGKEREFVAAISWSSGRTYYADSVKGRFTISRDNSKNTVYLQMNSLRPEDTAVYYCTAYTGPRSGYDYWGQGTLVTVSS
Result: 2.04
